The origin of these recorded values is patent US12030904B2.

- assay-comment: A549 cytotoxicity analysis (CellTiter-Glo)
- Format: cell-based
- condition-set: human; A549 cells, 48 hours; Table 1
experimental-readout: CC50 at 48 h (µM)
Give bare numbers, in µM.

// below: answered molecules
> print(dat)
                           structure.smiles  unit.spec  assay.result
1  CCCCCCCCCCCCCCCCCCOC[C@H](COP(=O)(O)OC[C@H]1O[C@@](C#N)(c2ccc3c(N)ncnn23)[C@H](O)[C@@H]1O)OCc1ccc(F)c(F)c1         µM            13
2  CCCCCCCCCCCCCCCCCCOC[C@H](COP(=O)(O)OC[C@H]1O[C@@](C#N)(c2ccc3c(N)ncnn23)[C@H](O)[C@@H]1O)OCc1ccc(C#N)cc1         µM            30
3  CCCCCCCCCCCCCCCCCCOC[C@H](COP(=O)(O)OC[C@H]1O[C@@](C#N)(c2ccc3c(N)ncnn23)[C@H](O)[C@@H]1OC(=O)C(C)C)OCc1ccccc1         µM            50

// switching to the query molecule
Q: # get_value(readout='CC50 at 48 h', item= "CCCCCCCCCCCCCCCCCCOC[C@H](COP(=O)(O)OC[C@H]1O[C@@](C#N)(c2ccc3c(N)ncnn23)[C@H](O)[C@@H]1O)OCC1CCCCC1" )
A: 19
